Source: BigSolDB 2.1

- Test context: in ethyl acetate, 285.65 K
Property: solubility (mole fraction)
Please state the value as a number alone, without comment.

What value of measured solubility (mole fraction) is listed for Cc1cc(C)[nH]n1 ?
0.0578

###

- Test context: in methanol, 293.15 K
Property: solubility (mole fraction)

Recorded solubility (mole fraction) of Cc1cc(C)[nH]n1 , please.
0.131

###

- Test context: in ethyl acetate, 313.15 K
Property: solubility (mole fraction)
Simply state the number, no unit and no words.

What value of measured solubility (mole fraction) is listed for Cc1cc(C)[nH]n1 ?
0.223

###

- Test context: in acetone, 290.65 K
Property: solubility (mole fraction)
I'd appreciate a reply containing only the number, no unit.

// returns reported solubility (mole fraction) for input Cc1cc(C)[nH]n1
0.0838

###

- Test context: in isopropanol, 310.65 K
Property: solubility (mole fraction)
Would you mind answering with just the numeric figure?

Give the measured solubility (mole fraction) of Cc1cc(C)[nH]n1 .
0.199

###

- Test context: in isopropanol, 295.65 K
Property: solubility (mole fraction)
Form field (numeric): enter value without unit.

Any idea what solubility (mole fraction) was measured for Cc1cc(C)[nH]n1 ?
0.149

###

- Test context: in toluene, 305.65 K
Property: solubility (mole fraction)
Respond using a number only.

Dear colleague, I am looking for the recorded solubility (mole fraction) of the following compound: Cc1cc(C)[nH]n1
0.114

###

- Test context: in isopropanol, 290.65 K
Property: solubility (mole fraction)
Could you respond with only the numeric value?

Quick one: solubility (mole fraction) for Cc1cc(C)[nH]n1 ?
0.134

###

- Test context: in methanol, 298.15 K
Property: solubility (mole fraction)
Please give the numeric answer without any surrounding text.

# query: solubility (mole fraction) of entry Cc1cc(C)[nH]n1
0.143

###

- Test context: in n-propanol, 293.15 K
Property: solubility (mole fraction)
Could you keep your reply to the number by itself?

Look at this compound and give its reported solubility (mole fraction). Cc1cc(C)[nH]n1
0.152

###

- Test context: in n-propanol, 303.15 K
Property: solubility (mole fraction)
Lab note: jot down the number only; don't add units.

Quick one: solubility (mole fraction) of Cc1cc(C)[nH]n1 ?
0.184

###

- Test context: in toluene, 295.65 K
Property: solubility (mole fraction)
# print the numeric value only

Sample Cc1cc(C)[nH]n1 — what was its solubility (mole fraction)?
0.0677

###

- Test context: in toluene, 288.15 K
Property: solubility (mole fraction)
Lab note: record just the number, no unit beside it.

// lookup solubility (mole fraction) for Cc1cc(C)[nH]n1
0.045

###

- Test context: in ethyl acetate, 308.15 K
Property: solubility (mole fraction)
Reply: number alone, nothing else.

Can you look up the measured solubility (mole fraction) of Cc1cc(C)[nH]n1 for me?
0.18

###

- Test context: in n-butanol, 283.15 K
Property: solubility (mole fraction)
Number, no unit, nothing else.

Returns the measured solubility (mole fraction) for the input compound. Input: Cc1cc(C)[nH]n1
0.133

###

- Test context: in n-propanol, 290.65 K
Property: solubility (mole fraction)
Lab note: record just the number, no unit beside it.

Dear colleague, I am looking for the recorded solubility (mole fraction) of the following molecule: Cc1cc(C)[nH]n1
0.145

###

- Test context: in acetone, 308.15 K
Property: solubility (mole fraction)
Reply with just the number.

I would be grateful if you could share the reported solubility (mole fraction) for Cc1cc(C)[nH]n1 .
0.175
